test: protein stability index of a GFP-peptide fusion (GPS, HEK-293T) (PSI 1-6); higher = more stable; conditions: treatment: DMSO; c terminus: a fixed tail appended;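 further: 24-mer peptide tiles fused after GFP, lentivirally expressed, FACS-sorted into six equal bins by GFP/DsRed ratio, decoded by Illumina sequencing, PSI is the read-weighted mean bin number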
Lab note: compare protein stability index against 3. Equal or greater, write 1. Smaller, write -1.

| CHAIN | LABEL_VALUE |
| --- | --- |
| CLGSLASKLSRKYVKAKKSIDKDE [FAN1] | -1 |

q: Has VLSESSGPSNTSHSSSRDSHLSNG [C2CD2L] a recorded protein stability index greater than or equal to 3?
a: 1

q: Determine whether this sequence has protein stability index no lower than 3: REVSSYPSTVGAEAQEEFLRVLGS [DFFB]
a: 1

q: Test whether the sequence QKRETLSPLCLIPMVTSPREEQQL [KCTD13] records protein stability index of 3 or higher.
a: 1

q: I'd appreciate it if you could say whether LPSRRDVYLSPRDDGYSTKDSYSS [RBMX] has protein stability index at least equal to 3.
a: 1

q: Identify whether the reported protein stability index of the following sequence is 3 or greater: PSRQYATLDVYNPFETREPPPAYE [SCAMP3]
a: 1

q: Does the sequence RLQQLRRLRGLLRVLRGRPGAGSR [FBXO33] have recorded protein stability index that is 3 or more?
a: -1

q: // inclusive: protein stability index at least 3? input: LILSIIFIEGYCTPEEVIWEALNM [MAGEA10]
a: 1

----------
assay: protein stability index of a GFP-peptide fusion (GPS, HEK-293T) (PSI 1-6); higher = more stable; conditions: treatment: DMSO; c terminus: a fixed tail appended
# binarize protein stability index: threshold 3 inclusive, high side class 1, low side class 0

| CHAIN | LABEL_VALUE |
| --- | --- |
| SLQPQQQQQRQRPPRPPPRGTPPR [N4BP2L1] | class 1 |

q: Exam item: decide whether the reported protein stability index for HILAKNYFSQVPVLASFILDDGEI [IQUB] is at least 3.
a: class 0

q: Determine whether measured protein stability index meets or exceeds 3 for RMSEDKPQDYKKRLSVELTSSLFR [CTNNB1]
a: class 1

q: Tell me whether protein stability index is at least 3 here: VPVKKQKTRTVFSSTQLCVLNDRF [NANOGP8]
a: class 0

----------
assay: protein stability index of a GFP-peptide fusion (GPS, HEK-293T) (PSI 1-6); higher = more stable; settings: treatment: MLN4924 1 uM, 8 h; c terminus: a fixed tail appended
Decide using protein stability index: a value greater than or equal to 5 is rule met, a smaller one is rule not met.

These recorded examples may help you get a feel for the data.
| CHAIN | LABEL_VALUE |
| --- | --- |
| SLFAFKSFRENWQRAWVRALNEQA [C2CD2L] | rule not met |
| IMTQLRQEGWIHHLARHAVACFLT [CRY1] | rule not met |
| AHRERNEFPEDPEFEAVVRQAELA [PI4K2A] | rule met |

q: Is protein stability index at least 5? Consider HNLVVACEIQVRTLASAGGPDNLV [ADD1]
a: rule not met

q: Does the sequence KHWVYVKRGGNCPAPAPLVPQDPD [ZBTB22] have recorded protein stability index that is 5 or more?
a: rule not met

q: protein stability index >= 5 for YMYLVIEELTREAVAVDVAVPKRL [HAGHL] ?
a: rule not met

q: Determine whether this sequence has protein stability index no lower than 5: RAVRDRNLLRDDRVLQNLLTIEER [CCND2]
a: rule not met

q: Check if protein stability index >= 5 (inclusive). Item: ERMAEEGGGGQGDGGSSLASGSTQ [FBXO28]
a: rule met

q: Textbook exercise: given the entry SRFISANLPCNKFKNRLVNIMPYE [PTPRD] , state whether its protein stability index is greater than or equal to 5.
a: rule not met

q: Item SEIKNLERYMCSRFFIDFPHIEEQ [TENT5D] with protein stability index of 5 or above?
a: rule not met

q: Record GQGLKSYMTKPSKSLLPHLKTGNS [RTP4] ; criterion: protein stability index no lower than 5. Met?
a: rule not met

q: Would you say HSRKTVLIKTIETRNGEVVTESQK [PRPH] shows protein stability index at minimum 5?
a: rule not met

q: Does the reported protein stability index for RVSDVQKVLQGGEQEIQFEDFTNT [PKD2L1] fall at or above the 5 mark?
a: rule not met

q: Hello, I need to know if STMTSSVQIYNLSQNIQEDDLQQL [ATL3] has measured protein stability index not below 5. Thanks!
a: rule not met

q: Does the sequence DYNPPRVQLSDEMFVFQDGRWVNE [CBY2] have recorded protein stability index that is 5 or more?
a: rule not met

q: // inclusive: protein stability index at least 5? input: KQRLMENTEDWRPRPGTGQSRSFR [PDLIM7]
a: rule not met

q: Is it the case that EGAQLGENKPSTCSFSIERILGLD [HESX1] has protein stability index reaching or exceeding 5?
a: rule not met

q: Given the entry VAKLQESQPGNAVIDKETIDLLAF [SDE2] , answer whether its protein stability index meets or surpasses 5.
a: rule not met

q: Does protein stability index meet or surpass 5 for GYPVSSAFAFQNTFPHSISAKNTS [SASS6] ?
a: rule not met

q: Could you tell me if the measured protein stability index of TTIEDEDAKARKQEIIKTTEQLIE [CAMK2B] reaches 5 or more?
a: rule met

q: Check if protein stability index >= 5 (inclusive). Item: HGLWDSLVYDVEVKSHLLDYVMTT [TRIP13]
a: rule not met

q: hey, is protein stability index for this one >= 5? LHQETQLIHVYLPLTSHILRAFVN [SNX8]
a: rule not met

q: // inclusive: protein stability index at least 5? input: ARELQEALPEAPAPLLPHITATSL [BCL2L13]
a: rule not met

q: Does the sequence MGVGKASASDGSSFVVARYFPAGN [GLIPR2] have recorded protein stability index that is 5 or more?
a: rule not met

q: Kindly determine if protein stability index recorded for EDKENYKKFYEAFSKNLKLGIHED [HSP90AB1] is above or exactly 5.
a: rule not met

----------
Recorded measurements of protein stability index, one per entry
assay: protein stability index of a GFP-peptide fusion (GPS, HEK-293T) (PSI 1-6); higher = more stable; details: treatment: DMSO; c terminus: a fixed tail appended
Write no unit; give the number alone.

| CHAIN | QUANTITATIVE_RESULT |
| --- | --- |
| EPAGGGRSREARSRLLLLEQELKT [SMAD6] | 4.63 |
| VDPIGHVYIFATCLGLSYDGLLGD [MAGEA6] | 3.17 |
| PLSLVKRTDLKDLIIFDKQSSQRM [CEP70] | 2.97 |
| AFLGPDEAFALPDSLLVVLDMDEG [SPSB4] | 2.45 |
| LQRVLQNCPWPMSCPGSSYRTVVR [EMID1] | 2.49 |
| PHEDHVFLVANFSQIETLTSVFQK [MATN2] | 2.25 |

Reported protein stability index for RRILDELTLCRSDLEAQMESLKEE [KRT33B] was 4.56

Reported protein stability index of RGYWGDIATGPFVAFGIEADDESL [DNAAF3] : 3.65

Kindly note the recorded protein stability index for IALDLTPVIEELTNAGFLQTESEL [FAN1] , which is 2.46

# protein stability index of TDCGKAFLKKSQLTEHKRIHTGKK [ZNF649] = 3.62

Just so you know, measured protein stability index for LDLFGVSMVVPLLSLHVKSLGASP [MFSD9] came out at 2.81

----------
In this section, each of the sequences is paired with its reported protein stability index.
experiment: protein stability index of a GFP-peptide fusion (GPS, HEK-293T) (PSI 1-6); higher = more stable; conditions: treatment: DMSO; c terminus: a fixed tail appended
Could you keep your reply to the number by itself?

| CHAIN | protein stability index |
| --- | --- |
| YSFRKLPDTQLLKFQLNKYTGEIK [PCDHGA10] | 2.39 |

protein stability index reading for VKQEEDIKPPPPLVLNSQQSDTLE [RAD54B] : 5.42

Memo: SLGALDLLGPATGCLLDDGLEGLF [SERTAD1] , reported protein stability index: 2.6

Given item QVKKTTTRWCHIVRDSDSLAESEF [PHTF1] , the value recorded as its protein stability index is 3.44

Looking up PAHRFVLAAGSAVFDAMFNGGMAT [BTBD1] , I found its protein stability index recorded as 2.49

Entry IDNSSEIEDEDQILENSSQKENVF [FAN1] — recorded protein stability index = 5.39

Reported protein stability index ( QSYKDLCERHEKGVLHKHQRALHK [SNX8] ) = 3.95

What the record says about LDQKKQDPRVQDFLQRCLESPFSR [NET1] : protein stability index is 3.51

Record summary for DYLPLTALVDGQIFCLHGGLSPSI [PPP2CA] : reported protein stability index = 2.58

Short answer for IDFSPYLEPLGAPQAPAPATATDT [CEBPB] : protein stability index was 4.42

Lab note: measured protein stability index of RYGCGHRGCGDGCCCPSCYRRYRF [KRTAP19-2] was 3.29

Record GILTFLAVLGRYVPGLLLSYLMLV [RETREG3] , field protein stability index: 3.42

// recorded protein stability index for RDHSVRVLISNHVTPFDHNIVNLL [AUP1] : 2.1

The reported protein stability index of the sequence FSDSSLIEDSQALHKRPKLDSEYY [LURAP1L] was 3.86

// field: protein stability index; key: TPTPFFHTFAGDDCQAGLNFADED [WAS] ; value = 4.86

Value of protein stability index reported for the sequence IRLVCSRGNRLKTTSWGLLSLGAL [SCNN1D] is 3.2

Kindly note the recorded protein stability index for SRLTPGGKAAQAGVAVGDWVLSID [PDLIM7] , which is 2.63

Values from the supplement of paper PMC10567573
